- Tested on: Panel melanoma (Carcinoma cell lines)
- method: Anticancer activity against melanoma cancer cell lines of NCI60 panel
- Assay type: functional
- condition parameters: Homo sapiens, read-out: pTGI (converted)
Where a name gives a salt, the structure may show the parent alone.
Assign Yes whenever TGI does not fall below 40 µM; assign No whenever it does.

Exercise: Does the compound COc1cc(/C=C2/C(=O)Nc3ccccc32)cc(OC)c1OC have recorded TGI that is 40 µM or more?
Solution: Yes

Exercise: Does the compound CC[C@]1(O)C[C@H]2CN(CCc3c([nH]c4ccccc34)[C@@](C(=O)OC)(c3cc4c(cc3OC)N(C=O)[C@H]3[C@@](O)(C(=O)OC)[C@H](OC(C)=O)[C@]5(CC)C=CCN6CC[C@]43[C@@H]65)C2)C1 [VINCRISTINE SULFATE] have recorded TGI that is 40 µM or more?
Solution: No

Exercise: Does the compound COc1cc(/C=C2/C(=O)N(c3ccccc3)c3ccccc32)cc(OC)c1OC have recorded TGI that is 40 µM or more?
Solution: No

Exercise: Does the compound COc1ccc2c(c1)/C(=C\c1cc(OC)c(OC)c(OC)c1)C(=O)N2 have recorded TGI that is 40 µM or more?
Solution: Yes

Exercise: Does the compound COc1cc(/C=C2/C(=O)N(C)c3ccccc32)cc(OC)c1OC have recorded TGI that is 40 µM or more?
Solution: Yes

Exercise: Does the compound COc1cc(/C=C2/C(=O)Nc3ccc(O)cc32)cc(OC)c1OC have recorded TGI that is 40 µM or more?
Solution: No
